- protocol_details: SAXS phase behaviour of hydrated Gem amphiphiles
- Assay type: physicochemical
- setup_conditions: equilibration 48 h, 37° C.
endpoint: Lyotropic phase lattice parameter (Å)
Report as a plain number; the unit Å is understood.

Check out these entries, answers already filled in.
molecule="CC(C)CCCC(C)CCCC(C)CCCC(C)CCOC(=O)Nc1ccn([C@@H]2O[C@H](CO)[C@@H](O)C2(F)F)c(=O)n1 (stereo partly shown)" observed=135.8
molecule="CCCCCCCC/C=C\\CCCCCCCC(=O)OCCOCCOCCOC(=O)Nc1ccn([C@@H]2O[C@H](CO)[C@@H](O)C2(F)F)c(=O)n1 (relative stereo)" observed=55.26

(Q) # query: Lyotropic phase lattice parameter of entry CCCCC/C=C\C/C=C\CCCCCCCCOC(=O)Nc1ccn([C@@H]2O[C@H](CO)[C@@H](O)C2(F)F)c(=O)n1 (relative stereo)
(A) 53.2

(Q) # query: Lyotropic phase lattice parameter of entry CCCCCCCC/C=C\CCCCCCCC(=O)OCCOCCOCCOCCOCCOCCOC(=O)Nc1ccn([C@@H]2O[C@H](CO)[C@@H](O)C2(F)F)c(=O)n1 (relative stereo)
(A) 124.4

====

- protocol_details: SAXS phase behaviour of hydrated Gem amphiphiles
- Format: physicochemical
- setup_conditions: equilibration 48 h, 25° C.
endpoint: Lyotropic phase

molecule="CCCCC/C=C\\C/C=C\\CCCCCCCC(=O)OCCOCCOCCOC(=O)Nc1ccn([C@@H]2O[C@H](CO)[C@@H](O)C2(F)F)c(=O)n1 (relative stereo) [Gem-PEG3-linoleoyl]" endpoint="Lyotropic phase" observed="Sponge phase (L3)"
molecule="CC/C=C\\C/C=C\\C/C=C\\CCCCCCCC(=O)OCCOCCOCCOCCOCCOCCOC(=O)Nc1ccn([C@@H]2O[C@H](CO)[C@@H](O)C2(F)F)c(=O)n1 (relative stereo) [Gem-PEG6-linolenoyl]" endpoint="Lyotropic phase" observed="Sponge phase (L3)"
molecule="CCCCCCCC/C=C\\CCCCCCCC(=O)OCCOCCOCCOCCOCCOCCOC(=O)Nc1ccn([C@@H]2O[C@H](CO)[C@@H](O)C2(F)F)c(=O)n1 (relative stereo) [Gem-PEG6-oleoyl]" endpoint="Lyotropic phase" observed=Ia3d
molecule="CC(C)CCCC(C)CCCC(C)CCCC(C)CCOC(=O)Nc1ccn([C@@H]2O[C@H](CO)[C@@H](O)C2(F)F)c(=O)n1 (stereo partly shown) [Gem-Phy]" endpoint="Lyotropic phase" observed=Ia3d

====

- Test system: CACO2 cell line
- protocol_details: MTS cytotoxicity assay, 72 hours
- Assay type: cell-based
- setup_conditions: CACO2, 72 hours, prodrugs as nanoparticle dispersions
- Experimental: The cytotoxicity of gemcitabine nanoparticles dispersion made from gemcitabine amphiphiles in the presence or absence of DMPC-cholesterol was evaluated in comparison to gemcitabine alone in several pancreatic cell lines including CF Pac-1, BxPC3, Panc-1 and MIA PaCa-2, MCF7and CACO2 cell lines. […] Cell viability was determined using the MTS assay and was conducted in triplicate to derive the IC50 values.
endpoint: pIC50
In simple prose, pIC50 is minus the logarithm base ten of a concentration in moles per litre.

(Q) # query: pIC50 of entry CCCCC/C=C\C/C=C\CCCCCCCC(=O)OCCOCCOCCOC(=O)Nc1ccn([C@@H]2O[C@H](CO)[C@@H](O)C2(F)F)c(=O)n1 (relative stereo) [Gem-PEG3-linoleoyl]
(A) 6.70

====

- System: MCF7 cell line
- protocol_details: MTS cytotoxicity assay, 72 hours
- Type: cell-based
- setup_conditions: Homo sapiens, MCF7, 72 hours, prodrugs as nanoparticle dispersions
endpoint: pIC50
In simple prose, pIC50 is minus the logarithm base ten of a concentration in moles per litre.

(Q) # query: pIC50 of entry "Nc1ccn([C@@H]2O[C@H](CO)[C@@H](O)C2(F)F)c(=O)n1"
(A) 8.22

====

Listed here: items and their measured Lyotropic phase lattice parameter.
- protocol_details: SAXS phase behaviour of hydrated Gem amphiphiles
- Format: physicochemical
- setup_conditions: equilibration 48 h, 25° C.
Hey, just the number and the unit after it is fine.

compound="CC(C)CCCC(C)CCCC(C)CCCC(C)CCOC(=O)Nc1ccn([C@@H]2O[C@H](CO)[C@@H](O)C2(F)F)c(=O)n1 (stereo partly shown)" endpoint="Lyotropic phase lattice parameter" observed="135.8 ± 0.5 Å"
compound="CCCCCCCC/C=C\\CCCCCCCC(=O)OCCOCCOCCOCCOCCOCCOC(=O)Nc1ccn([C@@H]2O[C@H](CO)[C@@H](O)C2(F)F)c(=O)n1 (relative stereo)" endpoint="Lyotropic phase lattice parameter" observed="125.2 ± 0.5 Å"
compound="CCCCC/C=C\\C/C=C\\CCCCCCCCOC(=O)Nc1ccn([C@@H]2O[C@H](CO)[C@@H](O)C2(F)F)c(=O)n1 (relative stereo)" endpoint="Lyotropic phase lattice parameter" observed="53.2 ± 0.5 Å"

With those in mind, consider the next compound.
(Q) # query: Lyotropic phase lattice parameter of entry CCCCCCCC/C=C\CCCCCCCC(=O)OCCOCCOCCOC(=O)Nc1ccn([C@@H]2O[C@H](CO)[C@@H](O)C2(F)F)c(=O)n1 (relative stereo)
(A) 55.26 ± 0.5 Å

Origin of measurements: patent US12503483B2
